All values here come from patent US20260144788A1.

# studySystem: SHP2 protein (Homo sapiens)
# testDetails: Measurement of SHP2 protein degradation in MV-4-11 cells (western blotting)
# Type: cell-based
# Design: endogenous in cells
# experimentalContext: 0.1 μM, harvested after 24 hours
SHP2% degradation overview
Provide only the numeric value, understood in %.

CC(=O)N[C@H](C(=O)N1C[C@H](O)C[C@H]1C(=O)NCc1ccc(-c2scnc2C)cc1O[C@H]1CC[C@H](C(=O)N2CC(Nc3cccc(Sc4cnc(N5CCC6(CC5)CO[C@@H](C)[C@H]6N)cn4)c3Cl)C2)CC1)C(C)(C)C : 99.9

// query Kindly state the measured SHP2% degradation obtained for CC(=O)N[C@H](C(=O)N1C[C@H](O)C[C@H]1C(=O)N[C@@H](C)c1ccc(-c2scnc2C)cc1OC1CCN(C(=O)C2CCN(c3nccc(Sc4cnc(N5CCC(C)(CN)CC5)cn4)c3Cl)CC2)CC1)C(C)(C)C with SHP2 protein (Homo sapiens).
// result 100.0

====

# studySystem: SHP2 protein (Homo sapiens)
# Sequence (Q06124 1-593): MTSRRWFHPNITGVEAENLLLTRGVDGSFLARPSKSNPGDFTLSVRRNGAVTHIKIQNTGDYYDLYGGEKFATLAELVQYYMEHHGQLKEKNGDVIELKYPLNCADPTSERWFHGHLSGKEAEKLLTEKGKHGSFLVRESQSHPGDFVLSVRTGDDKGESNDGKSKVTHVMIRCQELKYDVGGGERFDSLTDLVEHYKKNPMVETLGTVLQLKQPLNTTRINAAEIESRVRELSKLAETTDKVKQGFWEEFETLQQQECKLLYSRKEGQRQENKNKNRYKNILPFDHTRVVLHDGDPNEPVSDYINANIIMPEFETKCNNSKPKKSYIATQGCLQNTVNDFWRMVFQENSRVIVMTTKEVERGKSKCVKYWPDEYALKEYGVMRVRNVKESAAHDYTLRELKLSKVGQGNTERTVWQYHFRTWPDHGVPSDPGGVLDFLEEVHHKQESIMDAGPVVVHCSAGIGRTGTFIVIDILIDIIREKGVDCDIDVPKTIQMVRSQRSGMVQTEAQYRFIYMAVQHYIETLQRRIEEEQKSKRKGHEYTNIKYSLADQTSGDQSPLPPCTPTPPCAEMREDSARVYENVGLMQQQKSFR
# testDetails: Measurement of SHP2 protein degradation in NCI-H358 cells (western blotting)
# Assay type: cell-based
# Set-up: endogenous in cells; host or cells: NCI-H358
# experimentalContext: 0.01 μM, harvested after 24 hours
observedProperty: SHP2% degradation (%)
Provide only the numeric value, understood in %.

Cc1cc(C(C(=O)N2C[C@H](O)C[C@H]2C(=O)NCc2ccc(-c3scnc3C)cc2OC2CCN(C(=O)C3CCN(c4nccc(Sc5cnc(N6CCC(C)(N)CC6)c(CO)n5)c4Cl)CC3)CC2)C(C)C)on1 (some centres unmarked) : 95.0

// query Consider the compound shown here: CC(=O)N[C@H](C(=O)N1C[C@H](O)C[C@H]1C(=O)NCc1ccc(-c2scnc2C)cc1O[C@H]1CC[C@H](C(=O)N2CCC(N3CCOc4c(Sc5cnc(N6CCC(C)(CN)CC6)cn5)cccc43)CC2)CC1)C(C)(C)C What is its recorded SHP2% degradation?
// result 66.8

====

# studySystem: UniProt:Q06124
# testDetails: Measurement of SHP2 protein degradation in NCI-H358 cells (western blotting)
# Type: cell-based
# Set-up: endogenous in cells; host or cells: NCI-H358
# experimentalContext: 0.1 μM, harvested after 24 hours
observedProperty: SHP2% degradation (%)
Provide only the numeric value, understood in %.

The following compounds have reported results that may help.
CC(=O)N[C@H](C(=O)N1C[C@H](O)C[C@H]1C(=O)NCc1ccc(-c2scnc2C)cc1O[C@H]1CC[C@H](C(=O)N2CCC(N3CCOc4c(Sc5cnc(N6CCC(C)(CN)CC6)cn5)cccc43)CC2)CC1)C(C)(C)C : 97.7
Cc1ncsc1-c1ccc(CNC(=O)[C@@H]2C[C@@H](O)CN2C(=O)[C@@H](NC(=O)C2(F)CC2)C(C)(C)C)c(O[C@H]2CC[C@H](C(=O)N3CCC(Nc4nccc(Sc5cnc(N6CCC7(CC6)CO[C@@H](C)[C@H]7N)cn5)c4Cl)CC3)CC2)c1 : 97.0
CC(=O)N[C@H](C(=O)N1C[C@H](O)C[C@H]1C(=O)NCc1ccc(-c2scnc2C)cc1OC1CCN(C(=O)C2CCN(c3nccc(Sc4cnc(N5CCC(C)(CN)CC5)cn4)c3Cl)CC2)CC1)C1CC1 : 98.5

As a next step, examine the compound that follows.
// query Consider the compound shown here: Cc1ncsc1-c1ccc(CNC(=O)[C@@H]2C[C@@H](O)CN2C(=O)[C@@H](NC(=O)CC#N)C(C)(C)C)c(OC2CCN(C(=O)C3CCN(c4nccc(Sc5cnc(N6CCC7(CC6)CO[C@@H](C)[C@H]7N)c(CO)n5)c4Cl)CC3)CC2)c1 What is its recorded SHP2% degradation?
// result 99.9

====

# studySystem: SHP2 protein (Homo sapiens)
# testDetails: Measurement of SHP2 protein degradation in NCI-H358 cells (western blotting)
# Type: cell-based
# Set-up: endogenous in cells; host or cells: NCI-H358
# experimentalContext: 0.01 μM, harvested after 24 hours
observedProperty: SHP2% degradation
Just so you know, I need the unit written after the number.

Cc1cc(C(C(=O)N2C[C@H](O)C[C@H]2C(=O)NCc2ccc(-c3scnc3C)cc2OC2CCN(C(=O)C3CCN(c4nccc(Sc5cnc(N6CCC(C)(N)CC6)cn5)c4Cl)CC3)CC2)C(C)C)on1 (stereo partly shown) [Example 94] : 95.5%

// query Consider the compound shown here: CC(=O)N[C@H](C(=O)N1C[C@H](O)C[C@H]1C(=O)NCc1ccc(-c2scnc2C)cc1O[C@H]1CC[C@H](C(=O)N2CC(Nc3cccc(Sc4cnc(N5CCC(C)(N)CC5)cn4)c3Cl)C2)CC1)C(C)(C)C [Example 28] What is its recorded SHP2% degradation?
// result 86.9%

// query Consider the compound shown here: CC(=O)N[C@H](C(=O)N1C[C@H](O)C[C@H]1C(=O)NCc1ccc(-c2scnc2C)cc1O[C@H]1CC[C@H](C(=O)N2CC(Nc3nccc(Sc4cnc(N5CCC6(CC5)CO[C@@H](C)[C@H]6N)cn4)c3Cl)C2)CC1)C(C)(C)C [Example 40] What is its recorded SHP2% degradation?
// result 94.2%

// query Consider the compound shown here: CC(=O)N[C@H](C(=O)N1C[C@H](O)C[C@H]1C(=O)NCc1ccc(-c2scnc2C)cc1OC1CCN(C(=O)C2CCN(c3cccc(Sc4cnc(N5CCC(C)(CN)CC5)c(CO)n4)c3Cl)CC2)CC1)C(C)(C)C [Example 83] What is its recorded SHP2% degradation?
// result 97.8%

====

# studySystem: UniProt Q06124
# testDetails: Measurement of SHP2 protein degradation in NCI-H358 cells (western blotting)
# Format: cell-based
# Set-up: endogenous in cells; host or cells: NCI-H358
# experimentalContext: 0.01 μM, harvested after 24 hours
SHP2% degradation overview
Provide only the numeric value, understood in %.

The following molecules have reported results that may help.
Cc1cn([C@H](C(=O)N2C[C@H](O)C[C@H]2C(=O)NCc2ccccc2OC2CCN(C(=O)C3CCN(c4nccc(Sc5cnc(N6CCC7(CC6)CO[C@@H](C)[C@H]7N)c(CO)n5)c4Cl)CC3)CC2)C(C)C)nn1 [Example 111] : 98.0
Cc1cn([C@H](C(=O)N2C[C@H](O)C[C@H]2C(=O)NCc2ccc(-c3scnc3C)cc2OC2CCN(C(=O)C3CCN(c4nccc(Sc5cnc(N6CCC7(CC6)CO[C@@H](C)[C@H]7N)c(CO)n5)c4Cl)CC3)CC2)C(C)C)nn1 [Example 110] : 99.8
Cc1ncsc1-c1ccc(CNC(=O)[C@@H]2C[C@@H](O)CN2C(=O)[C@@H](n2cc(C3CC3)nn2)C(C)(C)C)c(OC2CCN(C(=O)C3CCN(c4nccc(Sc5cnc(N6CCC(C)(CN)CC6)cn5)c4Cl)CC3)CC2)c1 [Example 107] : 96.5

As a next step, examine the molecule that follows.
// query Consider the molecule shown here: CC(=O)N[C@H](C(=O)N1C[C@H](O)C[C@H]1C(=O)NCc1ccc(-c2scnc2C)cc1O[C@H]1CC[C@H](C(=O)N2CC(N3CCOc4c(Sc5cnc(N6CCC(C)(CN)CC6)cn5)cccc43)C2)CC1)C(C)(C)C [Example 34] What is its recorded SHP2% degradation?
// result −36.9

====

# studySystem: SHP2 protein (Homo sapiens)
# Sequence (Q06124 1-593): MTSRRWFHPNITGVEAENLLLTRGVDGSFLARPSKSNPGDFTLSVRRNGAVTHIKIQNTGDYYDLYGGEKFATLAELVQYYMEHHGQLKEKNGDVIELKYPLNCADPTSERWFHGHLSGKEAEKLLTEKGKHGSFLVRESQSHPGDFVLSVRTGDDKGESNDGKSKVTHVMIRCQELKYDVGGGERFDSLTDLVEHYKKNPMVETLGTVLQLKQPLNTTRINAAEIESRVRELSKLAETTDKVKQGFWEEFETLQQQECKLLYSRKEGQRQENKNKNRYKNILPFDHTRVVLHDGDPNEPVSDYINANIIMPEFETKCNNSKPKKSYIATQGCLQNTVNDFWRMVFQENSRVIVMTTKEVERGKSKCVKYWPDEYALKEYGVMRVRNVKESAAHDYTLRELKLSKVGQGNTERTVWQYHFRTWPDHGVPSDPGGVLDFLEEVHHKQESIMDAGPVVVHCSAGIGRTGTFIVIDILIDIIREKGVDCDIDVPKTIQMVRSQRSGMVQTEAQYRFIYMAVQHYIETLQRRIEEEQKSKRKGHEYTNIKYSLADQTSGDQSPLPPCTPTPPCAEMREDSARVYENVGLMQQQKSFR
# testDetails: Measurement of SHP2 protein degradation in NCI-H358 cells (western blotting)
# Type: cell-based
# Parameters: endogenous in cells; host or cells: NCI-H358
# experimentalContext: 0.1 μM, harvested after 24 hours
SHP2% degradation overview
Provide only the numeric value, understood in %.

The following compounds have reported results that may help.
Cc1ncsc1-c1ccc(CNC(=O)[C@@H]2C[C@@H](O)CN2C(=O)[C@H](C(C)C)n2cc(C3CC3)nn2)c(OC2CCN(C(=O)C3CCN(c4nccc(Sc5cnc(N6CCC(C)(CN)CC6)c(CO)n5)c4Cl)CC3)CC2)c1 : 98.0
CC(=O)N[C@H](C(=O)N1C[C@H](O)C[C@H]1C(=O)NCc1ccc(-c2scnc2C)cc1O[C@H]1CC[C@H](C(=O)N2CCC(n3cc(F)c4c(Sc5cnc(N6CCC(C)(CN)CC6)cn5)cccc43)CC2)CC1)C(C)(C)C : 99.
Cc1cn([C@H](C(=O)N2C[C@H](O)C[C@H]2C(=O)NCc2ccc(-c3scnc3C)cc2OC2CCN(C(=O)C3CCN(c4nccc(Sc5cnc(N6CCC(C)(CN)CC6)c(CO)n5)c4Cl)CC3)CC2)C(C)C)nn1 : 99.6
Cc1cc(C(C(=O)N2C[C@H](O)C[C@H]2C(=O)NCc2ccc(-c3scnc3C)cc2OC2CCN(C(=O)C3CCN(c4nccc(Sc5cnc(N6CCC(C)(CN)CC6)cn5)c4Cl)CC3)CC2)C(C)C)on1 (stereo partly drawn) [Example 92] : 80.2

// query Consider the compound shown here: CC(=O)N[C@H](C(=O)N1C[C@H](O)C[C@H]1C(=O)N[C@@H](C)c1ccc(-c2scnc2C)cc1O[C@H]1CC[C@H](C(=O)N2CC(Nc3nccc(Sc4cnc(N5CCC(C)(CN)CC5)cn4)c3Cl)C2)CC1)C(C)(C)C What is its recorded SHP2% degradation?
// result 99.4

// query Consider the compound shown here: Cc1cc(C(C(=O)N2C[C@H](O)C[C@H]2C(=O)NCc2ccc(-c3scnc3C)cc2OC2CCN(C(=O)C3CCN(c4nccc(Sc5cnc(N6CCC7(CC6)CO[C@@H](C)[C@H]7N)c(CO)n5)c4Cl)CC3)CC2)C(C)C)on1 (stereo partly drawn) What is its recorded SHP2% degradation?
// result 99.7

// query Consider the compound shown here: Cc1ncsc1-c1ccc(CNC(=O)[C@@H]2C[C@@H](O)CN2C(=O)[C@@H](NC(=O)C2(F)CC2)C(C)(C)C)c(OC2CCN(C(=O)CC3CN(c4nccc(Sc5cnc(N6CCC(C)(CN)CC6)cn5)c4Cl)C3)CC2)c1 What is its recorded SHP2% degradation?
// result 99.8

// query Consider the compound shown here: CC(=O)N[C@H](C(=O)N1C[C@H](O)C[C@H]1C(=O)NCc1ccc(-c2scnc2C)cc1O[C@H]1CC[C@H](C(=O)N2CCC(N3CCOc4c(Sc5cnc(N6CCC7(CC6)CO[C@@H](C)[C@H]7N)cn5)cccc43)CC2)CC1)C(C)(C)C What is its recorded SHP2% degradation?
// result 100.0

// query Consider the compound shown here: CC(=O)N[C@H](C(=O)N1C[C@H](O)C[C@H]1C(=O)NCc1ccc(-c2scnc2C)cc1OC1CCN(C(=O)C2CCN(c3cccc(Sc4cnc(N5CCC6(CC5)CO[C@@H](C)[C@H]6N)c(CO)n4)c3Cl)CC2)CC1)C(C)(C)C What is its recorded SHP2% degradation?
// result 99.9
